The entries below come with measured Plant response rating, Corn values attached.
- System: corn
- experimentDescription: Test B pre/postemergence corn
- Assay type: in vivo, Zea mays
- conditionDetails: Postemergence, Rate 250 g/ha; scale 0 to 10, 0 is no effect, 10 is complete control
quantityMeasured: Plant response rating, Corn

> print(dat)
                                   compound             quantitymeasured  numericreadout
1  CC(C)N(C(=O)n1oc(=O)n(CC2(C)COC2)c1=O)c1ccccc1 [Compound 420]  Plant response rating, Corn               0
2  CC(C)N(C(=O)n1oc(=O)n(N2C(C)CCCC2C)c1=O)c1ccc(F)cc1F (centres unmarked) [Compound 383]  Plant response rating, Corn               0
3  CC(C)N(C(=O)n1oc(=O)n(CC2CCOC2)c1=O)c1ccc(F)cc1 (centres unmarked) [Compound 375]  Plant response rating, Corn               0
4  CCOC(=O)C(C)N(C(=O)n1oc(=O)n(C)c1=O)c1ccc(F)cc1 (centres unmarked) [Compound 365]  Plant response rating, Corn               0
5  CC(C)N(C(=O)n1oc(=O)n(C2(C)CC2)c1=O)c1ccc(F)cc1F [Compound 363]  Plant response rating, Corn               2

---

- Test system: sugar beet
- experimentDescription: Test B pre/postemergence sugar beet
- Format: in vivo, Beta vulgaris
- conditionDetails: Rate 125 g/ha, Postemergence; scale of 0 to 10 where 0 is no effect and 10 is complete control
The entries below come with measured Sugarbeets plant response rating values attached.
quantityMeasured: Sugarbeets plant response rating

> print(dat)
                                smilesinput  numericreadout
1  CC(C)N(C(=O)n1oc(=O)n(C2CCCC2)c1=O)c1ccc(F)cc1               2
2  C=CCCCn1c(=O)on(C(=O)N(c2ccc(F)cc2)C(C)C)c1=O               0
3    CCN(C(=O)n1oc(=O)n(C(C)C)c1=O)C1CCCCC1               0
4  CCc1cccc(CC)c1-n1c(=O)on(C(=O)N(c2ccc(F)cc2)C(C)C)c1=O               0
5  CC(C)N(C(=O)n1oc(=O)n(Cc2ccccn2)c1=O)c1ccc(F)cc1               0

---

- System: giant foxtail
- experimentDescription: Test B pre/postemergence giant foxtail
- Assay type: in vivo, Setaria faberii
- conditionDetails: Postemergence, Rate 125 g/ha; scale of 0 to 10 where 0 is no effect and 10 is complete control
quantityMeasured: Giant foxtail plant response rating

> print(dat)
                                smilesinput   targetsystem  result
1  Cc1noc(C)c1-n1c(=O)on(C(=O)N(c2ccc(F)cc2F)C(C)C)c1=O  giant foxtail       0
2  CC(C)N(C(=O)n1oc(=O)n(CCCCl)c1=O)c1ccc(F)cc1  giant foxtail       9
3  C=CCn1c(=O)on(C(=O)N(c2ccc(F)cc2F)C2CC2)c1=O  giant foxtail       0
4  Cc1nsc(C)c1-n1c(=O)on(C(=O)N(c2ccc(F)cc2F)C(C)C)c1=O  giant foxtail       0
5  CC(C)N(C(=O)n1oc(=O)n(Cc2ccccc2Cl)c1=O)C1=CCCCC1  giant foxtail       0
6  COP(=O)(CCn1c(=O)on(C(=O)N(c2ccc(F)cc2)C(C)C)c1=O)OC  giant foxtail       0
7  CC(C)N(C(=O)n1oc(=O)n(Cc2nnc(Cl)s2)c1=O)c1ccccc1  giant foxtail       2
8  CC(C)N(C(=O)n1oc(=O)n(CCCCCl)c1=O)c1ccc(Cl)cc1  giant foxtail       2

---

- Tested on: sugar beet
- experimentDescription: Test B pre/postemergence sugar beet
- Format: in vivo, Beta vulgaris
- conditionDetails: Postemergence, Rate 125 g/ha; scale 0 to 10, 0 is no effect, 10 is complete control
quantityMeasured: Sugarbeets plant response rating

> print(dat)
                                smilesinput                  quantitymeasured  numericreadout
1  CC(C)N(C(=O)n1oc(=O)n(C[Si](C)(C)C)c1=O)c1ccc(F)cc1F  Sugarbeets plant response rating               3
2  CCC=CCn1c(=O)on(C(=O)N(c2ccc(F)cc2F)C(C)C)c1=O  Sugarbeets plant response rating               0
3  CC(C)N(C(=O)n1oc(=O)n(CC2CC2)c1=O)c1ccc(F)cc1F  Sugarbeets plant response rating               0
4  CC(C)N(C(=O)n1oc(=O)n(CCCNC(=O)CCl)c1=O)c1ccccc1  Sugarbeets plant response rating               0
5  CC(C)N(C(=O)n1oc(=O)n(CC2=NCCCO2)c1=O)c1ccccc1  Sugarbeets plant response rating               0

---

- Test system: crabgrass
- experimentDescription: Test B pre/postemergence crabgrass
- Assay type: in vivo, Digitaria sanguinalis
- conditionDetails: Preemergence, Rate 500 g/ha; scale of 0 to 10 where 0 is no effect and 10 is complete control
- Description: […] At the same time, these crop and weed species were also treated with postemergence applications of test chemicals formulated in the same manner. […] Treated plants and controls were maintained in a greenhouse for twelve to sixteen days, after which all species were compared to controls and visually evaluated. […]
quantityMeasured: Crabgrass plant response rating

> print(dat)
                                    compound  targetsystem                 quantitymeasured  numericreadout
 1  CC(C)N(C(=O)n1oc(=O)n(CCC2OCCCO2)c1=O)c1ccc(Cl)cc1 [Compound 532]     crabgrass  Crabgrass plant response rating              10
 2  C=CCCCn1c(=O)on(C(=O)N(c2ccccc2)C(C)C)c1=O [Compound 575]     crabgrass  Crabgrass plant response rating               9
 3  CC(C)N(C(=O)n1oc(=O)n(C)c1=O)c1ccc(F)cc1F [Compound 368]     crabgrass  Crabgrass plant response rating              10
 4  CCOC(=O)C(C)N(C(=O)n1oc(=O)n(C)c1=O)c1ccc(F)cc1 (centres unmarked) [Compound 365]     crabgrass  Crabgrass plant response rating               4
 5  CC(C)N(C(=O)n1oc(=O)n(CCCF)c1=O)c1ccc(F)cc1F [Compound 500]     crabgrass  Crabgrass plant response rating              10
 6  CCC=CCn1c(=O)on(C(=O)N(c2ccc(F)cc2F)C(C)C)c1=O [Compound 523]     crabgrass  Crabgrass plant response rating              10
 7  CC(C)N(C(=O)n1oc(=O)n(Cc2ccccc2-c2ccccc2)c1=O)c1ccc(F)cc1 [Compound 313]     crabgrass  Crabgrass plant response rating               0
 8  COCn1c(=O)on(C(=O)N(c2ccc(F)cc2F)C(C)C)c1=O [Compound 503]     crabgrass  Crabgrass plant response rating               9
 9  COCCOCn1c(=O)on(C(=O)N(c2ccc(Cl)cc2)C(C)C)c1=O [Compound 535]     crabgrass  Crabgrass plant response rating              10
10  CC(C)N(C(=O)n1oc(=O)n(C2(C)CC2)c1=O)c1ccc(Cl)cc1 [Compound 361]     crabgrass  Crabgrass plant response rating               9
11  CC(C)N(C(=O)n1oc(=O)n(C2CC3CCC2C3)c1=O)c1ccccc1 (centres unmarked) [Compound 328]     crabgrass  Crabgrass plant response rating               5

---

The entries below come with measured Crabgrass plant response rating values attached.
- System: crabgrass
- experimentDescription: Test B pre/postemergence crabgrass
- Type: in vivo, Digitaria sanguinalis
- conditionDetails: Preemergence, Rate 125 g/ha; scale of 0 to 10 where 0 is no effect and 10 is complete control
quantityMeasured: Crabgrass plant response rating

> print(dat)
                                   compound                 quantitymeasured  numericreadout
1  CCCCCCn1c(=O)on(C(=O)N(c2ccc(F)cc2F)C(C)C)c1=O [Compound 637]  Crabgrass plant response rating               9
2  COP(=O)(CCn1c(=O)on(C(=O)N(c2ccc(F)cc2)C(C)C)c1=O)OC [Compound 662]  Crabgrass plant response rating               0
3  COC(C)n1c(=O)on(C(=O)N(c2ccc(F)cc2F)C(C)C)c1=O (centres unmarked) [Compound 593]  Crabgrass plant response rating               0
4  CC(C)N(C(=O)n1oc(=O)n(CC(=O)C2CCC2)c1=O)c1ccc(F)cc1F [Compound 642]  Crabgrass plant response rating               8
5  CC(C)N(C(=O)n1oc(=O)n(CCF)c1=O)c1ccccc1 [Compound 669]  Crabgrass plant response rating               9
